Every entry's value here was drawn from ChEMBL document CHEMBL4814030.

# target.of.assay: L-lactate dehydrogenase A chain (Homo sapiens, UniProt P00338)
# experimental.protocol: Inhibition of recombinant human LDHA using sodium pyruvate as substrate preincubated for 5 mins followed by diaphorase/resazurin addition and measured after 20 mins by fluorescence based assay
observation.type: IC50 (nM)

sample_smiles=NS(=O)(=O)c1ccc(Cc2c(-c3ccc(F)c(OC4CC4)c3)nn(-c3nc(C(=O)O)cs3)c2CC2CC2)cc1F scale_unit=nM recorded_result=8
sample_smiles=NS(=O)(=O)c1ccc(Cc2c(-c3cccc(N4CCCC(F)(F)C4)c3)nn(-c3nc(C(=O)O)cs3)c2CC2CC2)cc1F scale_unit=nM recorded_result=18
sample_smiles=COc1cccc(COc2cccc(-c3nn(-c4nc(C(=O)O)cs4)cc3Cc3ccc(S(N)(=O)=O)cc3)c2)c1 scale_unit=nM recorded_result=21
sample_smiles=COc1cccc(-c2nn(-c3nc(C(=O)O)cs3)cc2Cc2ccc(S(N)(=O)=O)cc2)c1 scale_unit=nM recorded_result=90

I: Cc1ccc(Oc2cc(-c3nn(-c4nc(C(=O)O)cs4)c(CC4CC4)c3Cc3ccc(S(N)(=O)=O)c(F)c3)ccc2F)cc1
II: NS(=O)(=O)c1ccc(Cc2c(-c3ccc(F)c(OCc4ccc(F)cc4)c3)nn(-c3nc(C(=O)O)cs3)c2CC2CC2)cc1
III: NS(=O)(=O)c1ccc(Cc2c(-c3ccc(F)c(NC(=O)c4ccccc4)c3)nn(-c3nc(C(=O)O)cs3)c2CC2CC2)cc1F
IV: Cc1ccc(COc2cccc(-c3nn(-c4nc(C(=O)O)cs4)cc3Cc3ccc(S(N)(=O)=O)cc3)c2)cc1
Asked: Order the records by IC50, with each subsequent value no larger than the one before. Hello, could you send the labels back in the order asked? Thank you.
Given back: II, IV, I, III
(II: 84 nM, IV: 39 nM, I: 26 nM, III: 7 nM)

###

# target.of.assay: L-lactate dehydrogenase A chain (Homo sapiens, UniProt P00338)
# experimental.protocol: Inhibition of LDHA in human MIA PaCa2 cells assessed as reduction in lactate production incubated for 2 hrs by fluorescence based assay
# Assay type: cell-based, MIA PaCa-2
pIC50: −log10 of the molar value.
observation.type: pIC50

Examples with their reported pIC50 follow.
compound=NS(=O)(=O)c1ccc(Cc2c(-c3ccc(F)c(OC4CC4)c3)nn(-c3nc(C(=O)O)cs3)c2CC2CC2)cc1F target_of_assay="L-lactate dehydrogenase A chain (Homo sapiens, UniProt P00338)" recorded_result=5.68
compound=Cc1ccc(COc2cccc(-c3nn(-c4nc(C(=O)O)cs4)cc3Cc3ccc(S(N)(=O)=O)cc3)c2)cc1 target_of_assay="L-lactate dehydrogenase A chain (Homo sapiens, UniProt P00338)" recorded_result=5.12
compound=COc1cccc(COc2cccc(-c3nn(-c4nc(C(=O)O)cs4)cc3Cc3ccc(S(N)(=O)=O)cc3)c2)c1 target_of_assay="L-lactate dehydrogenase A chain (Homo sapiens, UniProt P00338)" recorded_result=5.27
compound=NS(=O)(=O)c1ccc(Cc2c(-c3cccc(Oc4cccc(F)c4)c3)nn(-c3nc(C(=O)O)cs3)c2CC2CC2)cc1 target_of_assay="L-lactate dehydrogenase A chain (Homo sapiens, UniProt P00338)" recorded_result=4.72
compound=NS(=O)(=O)c1ccc(Cc2c(-c3ccc(F)c(Oc4ccccc4)c3)nn(-c3nc(C(=O)O)cs3)c2CC2CC2)cc1 target_of_assay="L-lactate dehydrogenase A chain (Homo sapiens, UniProt P00338)" recorded_result=5.77
compound=NS(=O)(=O)c1ccc(Cc2c(-c3ccc(F)c(OCc4ccc(F)cc4)c3)nn(-c3nc(C(=O)O)cs3)c2CC2CC2)cc1 target_of_assay="L-lactate dehydrogenase A chain (Homo sapiens, UniProt P00338)" recorded_result=5.48

1: NS(=O)(=O)c1ccc(Cc2c(-c3ccc(F)c(C(=O)NCc4ccccc4)c3)nn(-c3nc(C(=O)O)cs3)c2CC2CC2)cc1F
2: NS(=O)(=O)c1ccc(Cc2c(-c3ccc(F)c(OCC4CCOC4)c3)nn(-c3nc(C(=O)O)cs3)c2CC2CC2)cc1F (stereo not given)
Asked: Lower value of pIC50 belongs to which: 1 or 2 ? Selection: enter the item's label.
Given back: 1

1: NS(=O)(=O)c1ccc(Cc2cn(-c3nc(C(=O)O)cs3)nc2-c2cccc(Oc3ccccc3)c2)cc1
2: NS(=O)(=O)c1ccc(Cc2c(-c3ccc(F)c(C(=O)N4CCOCC4)c3)nn(-c3nc(C(=O)O)cs3)c2CC2CC2)cc1F
3: NS(=O)(=O)c1ccc(Cc2c(-c3cccc(N4CCOCC4)c3)nn(-c3nc(C(=O)O)cs3)c2CC2CC2)cc1F
4: NS(=O)(=O)c1ccc(Cc2c(-c3ccc(F)c(OCc4ccc(C(F)(F)F)o4)c3)nn(-c3nc(C(=O)O)cs3)c2CC2CC2)cc1F
5: NS(=O)(=O)c1ccc(Cc2c(-c3ccc(F)c(Oc4ccc(F)cc4)c3)nn(-c3nc(C(=O)O)cs3)c2CC2CC2)cc1F
Asked: // smallest pIC50 at index 0, largest at the end Hello, could you send the labels back in the order asked? Thank you.
Given back: 3, 1, 2, 5, 4
(3: 4.63, 1: 5.03, 2: 5.49, 5: 5.77, 4: 6.00)
